assay-remarks: gradient 5% acetonitrile 3 min, to 50% in 2 min, to 85% in 15 min, held 3 min, 100 µL/min
experimental-context: column: Zorbax Extend-C18 2.1 x 50 mm; eluents: water / acetonitrile, 0.1% formic acid
Would you kindly list RP-LC retention time for each of these compounds?
Answers are plain numbers, in s.

Some compounds with known RP-LC retention time results, for comparison:
| compound | RP-LC retention time / s |
| --- | --- |
| Cc1cc2nn(CC(=O)NCc3ccccc3)c(=O)n2c(-c2ccccc2)n1 | 753 |
| O=S1(=O)C[C@H](N2CCN(c3cccc(Cl)c3)CC2)[C@@H](S(=O)(=O)c2ccc(F)cc2)C1 | 1040 |
| Cc1cn(C)nc1C(=O)Nc1nnc(-c2ccco2)o1 | 622 |
| COc1ccccc1CNC(=O)C1CC(=O)N(c2n[nH]c3cccc(F)c23)C1 (stereo not given) | 711 |
| O=C1NCCCCCCN(C(=O)Nc2ccccc2F)[C@H]2CCC[C@@H]12 | 805 |
| COc1ccc(OC)c(Nc2c(-c3ccc(Br)cc3)nc3cnccn23)c1 | 1000 |
| CCCNC(=O)CCc1nc2ccccc2n(CC(=O)Nc2ccc(C(C)C)cc2)c1=O | 891 |
| Cc1ccc(N2CCC(NC(=O)c3ccc(C#N)cc3)C2=O)cc1C (stereo not given) | 854 |
| CCC(C(=O)NCCOC)n1nc(C)c2nn(-c3ccccc3)c(C)c2c1=O (stereo not given) | 763 |
| CC(C)(C)C(O)CCNC(=O)C(=O)NCc1ccccc1 (stereo not given) | 740 |

# batch: return RP-LC retention time for each of the 6 compounds below
1. COc1ccc(OC)c(S(=O)(=O)N(C)CC2(C)CCOCC2)c1
2. COc1ccc(-c2cc3n(n2)CCCN(C(=O)C2CCOC2)C3)cc1 (stereo not given)
3. Cc1noc(C)c1CNC(=O)NCCc1ccccc1
4. CC12C=CC(=O)C=C1CCC1C2=CCC2(C)C1CC[C@@H]2C(=O)CN1CCN(c2cc(N3CCCC3)nc(N3CCCC3)n2)CC1 (stereo not given in full)
5. Cn1cnc([N+](=O)[O-])c1Sc1n[nH]c(N)n1
6. CCCNc1cc(N2CCC(CCC(=O)NC(CC)CC)CC2)ncn1

[852, 703, 689, 732, 599, 656]

# batch: return RP-LC retention time for each of the 3 compounds below
1. CSc1ccc(CNC(=O)C2CCCN(C(=O)c3cc(C)cc(C)c3)C2)cc1 (stereo not given)
2. CCc1ccc(CNC(=O)C2CCCN(c3nnc(C)c4c(C)n(-c5ccccc5)nc34)C2)cc1 (stereo not given)
3. Cc1cc(C)c(NC(=O)Cn2nc3c4cccc(C)c4ncn3c2=O)c(C)c1

1. 921
2. 795
3. 679

For the compound O=C(NCc1ccc2c(c1)OCO2)C1=CCN(Cc2ccccc2)CC1 , what RP-LC retention time is on record?
607

Recorded values, source the METLIN SMRT retention time set (Domingo-Almenara et al. 2019).
